- Study System: Adenosine receptor A3 (Rattus norvegicus, UniProt P28647)
- Sequence (P28647 whole entry): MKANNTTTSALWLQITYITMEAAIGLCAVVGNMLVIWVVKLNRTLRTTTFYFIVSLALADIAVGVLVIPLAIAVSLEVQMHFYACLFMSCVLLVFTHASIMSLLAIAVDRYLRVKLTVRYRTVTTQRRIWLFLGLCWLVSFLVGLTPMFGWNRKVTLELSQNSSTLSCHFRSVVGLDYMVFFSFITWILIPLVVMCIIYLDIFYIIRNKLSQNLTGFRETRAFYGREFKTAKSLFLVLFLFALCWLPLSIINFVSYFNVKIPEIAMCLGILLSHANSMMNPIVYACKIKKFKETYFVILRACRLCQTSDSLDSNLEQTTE
- Assay Info: biochemical
- Description: Binding affinity for rat A3-adenosine receptor expressed in chinese hamster ovarian cells (assayed by the displacement of specific [125I]-N6-(4-amino-3-iodobenzyl)-adenosine-5''-N-methyluronamide)
Measurement Name: Ki (nM)

Solved cases (2 shown):
{"Compound": "CNC(=O)[C@H]1OC(n2cnc3c(NCc4cccc(C(F)(F)F)c4)ncnc32)[C@H](O)[C@@H]1O (some centres undefined)", "Study System": "Adenosine receptor A3 (Rattus norvegicus, UniProt P28647)", "U": "nM", "Ki": 31}
{"Compound": "CNC(=O)[C@H]1OC(n2cnc3c(NCc4ccc(S(=O)(=O)O)cc4)ncnc32)[C@H](O)[C@@H]1O (some centres undefined)", "Study System": "Adenosine receptor A3 (Rattus norvegicus, UniProt P28647)", "U": "nM", "Ki": 4500}

(a) CNC(=O)[C@H]1OC(n2cnc3c(NCc4cccc(N)c4)ncnc32)[C@H](O)[C@@H]1O (some centres undefined)
(b) CCNC(=O)[C@H]1OC(n2cnc3c(N[C@@H](C)c4ccccc4)ncnc32)[C@H](O)[C@@H]1O (some centres undefined)
stdin: Could you determine which record has the numerically smaller Ki? Candidates: a and b // return label of chosen record
stdout: a
(a: 28 nM, b: 494 nM)

----------
Observed Ki, system Adenosine A2 receptor (Rattus norvegicus, UniProt P29276+P30543).
Measurement Name: Ki (nM)

Examples with their reported Ki follow.
{"Compound": "CNC(=O)[C@H]1OC(n2cnc3c(NCc4cccc([N+](=O)[O-])c4)ncnc32)[C@H](O)[C@@H]1O (stereo partly specified)", "Study System": "Adenosine A2 receptor (Rattus norvegicus, UniProt P29276+P30543)", "Ki, nM": 441}
{"Compound": "CNC(=O)[C@H]1O[C@@H](n2cnc3c(NCc4cccc(Cl)c4)ncnc32)[C@H](O)[C@@H]1O", "Study System": "Adenosine A2 receptor (Rattus norvegicus, UniProt P29276+P30543)", "Ki, nM": 559}
{"Compound": "CNC(=O)[C@H]1O[C@@H](n2cnc3c(NCc4ccccc4)ncnc32)[C@H](O)[C@@H]1O", "Study System": "Adenosine A2 receptor (Rattus norvegicus, UniProt P29276+P30543)", "Ki, nM": 597}
{"Compound": "CCNC(=O)[C@H]1O[C@@H](n2cnc3c(NCc4cccc(I)c4)ncnc32)[C@H](O)[C@@H]1O", "Study System": "Adenosine A2 receptor (Rattus norvegicus, UniProt P29276+P30543)", "Ki, nM": 7.2}
{"Compound": "NC(=O)[C@H]1OC(n2cnc3c(N)ncnc32)[C@H](O)[C@@H]1O (stereo partly specified)", "Study System": "Adenosine A2 receptor (Rattus norvegicus, UniProt P29276+P30543)", "Ki, nM": 120}
{"Compound": "CCNC(=O)[C@H]1O[C@@H](n2cnc3c(NCc4cccc(Cl)c4)ncnc32)[C@H](O)[C@@H]1O", "Study System": "Adenosine A2 receptor (Rattus norvegicus, UniProt P29276+P30543)", "Ki, nM": 19}
{"Compound": "CCNC(=O)[C@H]1O[C@@H](n2cnc3c(N[C@H](C)c4ccccc4)ncnc32)[C@H](O)[C@@H]1O", "Study System": "Adenosine A2 receptor (Rattus norvegicus, UniProt P29276+P30543)", "Ki, nM": 259}
{"Compound": "NC(=O)[C@H]1O[C@@H](n2cnc3c(NCc4ccccc4)ncnc32)[C@H](O)[C@@H]1O", "Study System": "Adenosine A2 receptor (Rattus norvegicus, UniProt P29276+P30543)", "Ki, nM": 423}
{"Compound": "CNC(=O)[C@H]1O[C@@H](n2cnc3c(NCc4cccc(Br)c4)ncnc32)[C@H](O)[C@@H]1O", "Study System": "Adenosine A2 receptor (Rattus norvegicus, UniProt P29276+P30543)", "Ki, nM": 64}
{"Compound": "CCNC(=O)[C@H]1O[C@@H](n2cnc3c(NCc4ccccc4)ncnc32)[C@H](O)[C@@H]1O", "Study System": "Adenosine A2 receptor (Rattus norvegicus, UniProt P29276+P30543)", "Ki, nM": 95}

(I) CNC(=O)[C@H]1OC(n2cnc3c(NCc4ccc(N)cc4)ncnc32)[C@H](O)[C@@H]1O (stereo partly specified)
(II) CCNC(=O)[C@H]1OC(n2cnc3c(N)[n+]([O-])cnc32)[C@H](O)[C@@H]1O (stereo partly specified)
stdin: Please let me know which one, I or II , has a lower measured Ki value. Label of pick, please.
stdout: II

----------
- Study System: Adenosine receptor A3 (Rattus norvegicus, UniProt P28647)
pKi: −log10 of the molar value.
Measurement Name: pKi

(A) CCNC(=O)[C@H]1OC(n2cnc3c(N)[n+]([O-])cnc32)[C@H](O)[C@@H]1O (some centres not stated)
(B) NC(=O)[C@H]1OC(n2cnc3c(N)ncnc32)[C@H](O)[C@@H]1O (some centres not stated)
stdin: Lab log: flag the item ( A or B ) with the smaller pKi figure. Provide the label of your selected option as the answer.
stdout: B
(B: 5.85, A: 6.33)

----------
- Study System: Adenosine receptor A3 (Rattus norvegicus)
- Assay Info: biochemical
pKi: −log10 of the molar value.
Measurement Name: pKi

{"Molecule": "CNC(=O)[C@H]1OC(n2cnc3c(NCc4ccc(Cl)cc4)ncnc32)[C@H](O)[C@@H]1O (some centres not stated)", "Readout Number": 7.77}
{"Molecule": "CNC(=O)[C@H]1OC(n2cnc3c(NCc4cccc(NC(C)=O)c4)ncnc32)[C@H](O)[C@@H]1O (some centres not stated)", "Readout Number": 7.38}
{"Molecule": "CNC(=O)[C@H]1OC(n2cnc3c(NCc4cccc([N+](=O)[O-])c4)ncnc32)[C@H](O)[C@@H]1O (some centres not stated)", "Readout Number": 7.72}
{"Molecule": "CNC(=O)[C@H]1O[C@@H](n2cnc3c(NCc4cccc(Br)c4)ncnc32)[C@H](O)[C@@H]1O", "Readout Number": 8.72}

(I) CCNC(=O)[C@H]1OC(n2cnc3c(NCc4cccc(Br)c4)ncnc32)[C@H](O)[C@@H]1O (some centres not stated)
(II) CNC(=O)[C@H]1OC(n2cnc3c(NCc4ccc(Br)cc4)ncnc32)[C@H](O)[C@@H]1O (some centres not stated)
(III) CNC(=O)[C@H]1OC(n2cnc3c(NCc4cccc(S(=O)(=O)O)c4)ncnc32)[C@H](O)[C@@H]1O (some centres not stated)
stdin: Order the records by pKi, with each subsequent value no larger than the one before. Sort the labels as requested; that list is your answer.
stdout: I, II, III

----------
- Assay Info: Ratio of binding affinities for A2 receptor compared to that of A3 receptor
Measurement Name: Ratio

{"Molecule": "CNC(=O)[C@H]1OC(n2cnc3c(NCc4cccc([N+](=O)[O-])c4)ncnc32)[C@H](O)[C@@H]1O (stereo not given in full)", "Ratio": 23}

(A) CCNC(=O)[C@H]1OC(n2cnc3c(N[C@@H](C)c4ccccc4)ncnc32)[C@H](O)[C@@H]1O (stereo not given in full)
(B) NC(=O)[C@H]1OC(n2cnc3c(N)ncnc32)[C@H](O)[C@@H]1O (stereo not given in full)
(C) CNC(=O)[C@H]1O[C@@H](n2cnc3c(NCc4ccccc4)ncnc32)[C@H](O)[C@@H]1O
(D) CNC(=O)[C@H]1OC(n2cnc3c(NCc4ccc(Cl)cc4)ncnc32)[C@H](O)[C@@H]1O (stereo not given in full)
(E) CCNC(=O)[C@H]1O[C@@H](n2cnc3c(NCc4ccccc4)ncnc32)[C@H](O)[C@@H]1O
stdin: Rank the items in ascending order with respect to Ratio. Put the labels in the order asked and list them.
stdout: B, A, E, C, D
(B: 0.085, A: 3.3, E: 14, C: 37, D: 160)

----------
Sequence of the target: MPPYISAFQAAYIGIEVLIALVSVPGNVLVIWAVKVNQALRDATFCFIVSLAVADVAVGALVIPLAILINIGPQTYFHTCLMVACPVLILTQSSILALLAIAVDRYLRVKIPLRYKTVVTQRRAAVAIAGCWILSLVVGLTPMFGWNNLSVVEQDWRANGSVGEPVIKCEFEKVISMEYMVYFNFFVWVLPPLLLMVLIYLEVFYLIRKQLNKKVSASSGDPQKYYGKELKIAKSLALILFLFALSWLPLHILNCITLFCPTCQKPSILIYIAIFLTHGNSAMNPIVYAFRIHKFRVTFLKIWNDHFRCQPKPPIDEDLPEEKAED
Measurement Name: Ki (nM)

{"Compound": "CNC(=O)[C@H]1OC(n2cnc3c(NCc4cccc([N+](=O)[O-])c4)ncnc32)[C@H](O)[C@@H]1O (stereo partly drawn)", "Ki [nM]": 735}

(A) NC(=O)[C@H]1OC(n2cnc3c(N)ncnc32)[C@H](O)[C@@H]1O (stereo partly drawn)
(B) CCNC(=O)[C@H]1OC(n2cnc3c(N)[n+]([O-])cnc32)[C@H](O)[C@@H]1O (stereo partly drawn)
stdin: Could you tell me which of A and B has the lower Ki reading? Mark your answer with the label of the selected entry.
stdout: A
